# Test system: 3E7 antibody
# Test protocol: Solution radioimmunoassay, inhibition of [125I]b-endorphin binding to mAb 3E7
# Stated conditions: relative to YGGFL = 1
Where no end group is shown, it is not given here.
Label TRUE when Affinity Relative to YGGFL (SEQ ID NO: 125) is at or above 0.003; otherwise label FALSE.

YGNWTY [YGNWTY]	FALSE
YGGFL [Tyr-Gly-Gly-Phe-Leu, reference compound]	TRUE
YGGFPD [YGGFPD]	TRUE
YGPFWS [YGPFWS]	TRUE
YGFWGM [YGFWGM]	TRUE

**Query** Item YGGWAG [YGGWAG] with Affinity Relative to YGGFL (SEQ ID NO: 125) of 0.003 or above?
**Result** FALSE

**Query** Item YAGFAQ [YAGFAQ] with Affinity Relative to YGGFL (SEQ ID NO: 125) of 0.003 or above?
**Result** FALSE

**Query** Item YGGF [Tyr-Gly-Gly-Phe, reference compound] with Affinity Relative to YGGFL (SEQ ID NO: 125) of 0.003 or above?
**Result** TRUE
